# ASSAYED TARGET: T1, human TREM2 (human, UniProt Q9NZC2 19-174, limits assumed)
# T1 sequence: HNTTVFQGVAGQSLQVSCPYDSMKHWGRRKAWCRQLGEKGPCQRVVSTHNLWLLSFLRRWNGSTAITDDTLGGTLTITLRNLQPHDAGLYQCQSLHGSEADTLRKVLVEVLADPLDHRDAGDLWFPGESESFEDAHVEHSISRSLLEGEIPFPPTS
# PROTOCOL TEXT: yeast-displayed Fab FACS, 1st screen 110 nM
QUANTITY: binding signal fold over 6E7 parental (fold)
Supply the numeric figure in fold, leaving out any unit text.

# BINDER, binding signal fold over 6E7 parental / fold
rows = [
    ("V30 (Fab, V domains shown) VH: EVQLVQSGAEVKKPGESLKISCKGSGSSFTSYWIAWVRQMPGKGLEWMGIIYPGDSDTRYSPSFQGQVTISADKSISTAYLQWSSLKASDTAMYFCARQRTFYYDSSDYFDYWGQGTLVTVSS VL: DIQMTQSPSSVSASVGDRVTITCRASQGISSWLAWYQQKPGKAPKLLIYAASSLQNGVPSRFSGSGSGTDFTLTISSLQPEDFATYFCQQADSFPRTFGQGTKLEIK", 0.79),
]

Q. Fill in reported binding signal fold over 6E7 parental for this entry: V43 (Fab, V domains shown) VH: EVQLVQSGAEVKKPGESLKISCKGSGYSFTSYWIAWVRQMPGKGLEWMGIIYPGDSGTRYSPSFQGQVTISADKSISTAYLQWSSLKASDTAMYFCARQRTFYYDSSDYFDYWGQGTLVTVSS VL: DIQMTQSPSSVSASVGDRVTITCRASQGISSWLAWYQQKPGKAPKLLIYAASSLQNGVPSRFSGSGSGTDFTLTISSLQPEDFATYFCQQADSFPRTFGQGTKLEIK
A. 0.2

Q. Answer with the recorded binding signal fold over 6E7 parental for the binder listed here: V71 (Fab, V domains shown) VH: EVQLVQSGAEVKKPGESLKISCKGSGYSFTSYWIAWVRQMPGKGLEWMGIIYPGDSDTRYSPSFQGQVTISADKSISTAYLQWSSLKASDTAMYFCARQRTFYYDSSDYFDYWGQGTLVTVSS VL: DIQMTQSPSSVSASVGDRVTITCRASQGISSWLAWYQQKPGKAPKLLIYAASSLQNGVPSRFSGSGSGTDFTLTISSLQPEDFATYFCQQADSEPRTFGQGTKLEIK
A. 0.37

Q. Entry V82 (Fab, V domains shown) VH: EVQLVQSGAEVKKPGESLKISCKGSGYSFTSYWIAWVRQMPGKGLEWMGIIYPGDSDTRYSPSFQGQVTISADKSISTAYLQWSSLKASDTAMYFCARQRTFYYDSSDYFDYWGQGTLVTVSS VL: DIQMTQSPSSVSASVGDRVTITCRASQGISSWLAWYQQKPGKAPKLLIYAGSSLQNGVPSRFSGSGSGTDFTLTISSLQPEDFATYFCQQADSFPRTFGQGTKLEIK needs its binding signal fold over 6E7 parental filled in; supply it.
A. 0.3

Q. Find the measured binding signal fold over 6E7 parental of V70 (Fab, V domains shown) VH: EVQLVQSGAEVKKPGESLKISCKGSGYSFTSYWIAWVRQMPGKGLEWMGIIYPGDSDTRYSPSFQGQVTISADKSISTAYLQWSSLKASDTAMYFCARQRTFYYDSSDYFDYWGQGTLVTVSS VL: DIQMTQSPSSVSASVGDRVTITCRASQGISSWLAWYQQKPGKAPKLLIYAAGSLQNGVPSRFSGSGSGTDFTLTISSLQPEDFATYFCQQADSFPRTFGQGTKLEIK and report it.
A. 0.79

Q. Give the reported binding signal fold over 6E7 parental for this binder. V8 (Fab, V domains shown) VH: EVQLVQSGAEVKKPGESLKISCKGSGYSFTSYWIAWVRQMPGKGLEWMGIIYPGDSDTKYSPSFQGQVTISADKSISTAYLQWSSLKASDTAMYFCARQRTFYYDSSDYFDYWGQGTLVTVSS VL: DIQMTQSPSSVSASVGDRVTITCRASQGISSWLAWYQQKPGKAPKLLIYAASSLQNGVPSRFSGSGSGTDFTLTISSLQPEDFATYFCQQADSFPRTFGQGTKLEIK
A. 0.28
